Listed here: molecules with reported pKi for Histamine Receptor H3 (Homo sapiens, UniProt Q9Y5N1).
pKi: −log10 of the molar value.

Molecule	pKi
c1ccc2c(c1)C1CC(CNCCCCc3c[nH]cn3)C2c2ccccc21 (centres unmarked)	7.72
O=C(c1ccccn1)N1CCC(Cc2c[nH]cn2)CC1	8.70
O=C(NCCCCc1c[nH]cn1)C1(c2ccc(Cl)cc2)CCC1	7.72
O=C(c1cnc2ccccc2c1)N1CCC(Cc2c[nH]cn2)CC1	7.26
O=C(CCN1CCC(Cc2c[nH]cn2)CC1)NCCc1ccc(Cl)cc1	9.15
c1nc(CC2CCN(CCCOc3ccc(CN4CCCCC4)cc3)CC2)c[nH]1	8.52
C/C(=C\C(=O)Nc1ccc(Cl)cc1)c1ccc(Cc2c[nH]cn2)cc1	6.33
CC(C)(C)CCC#C[C@@H]1C[C@H]1c1c[nH]cn1	8.52

Entry source: patent US20040198743A1
